- target.system: HLA-A*3101 (Homo sapiens, UniProt P04439, A270S/D185E/E176V/E277Q/F33T/G231S/G80R/H175R/I121M/I218V/I322F/K168Q/L300P/L318F/M331R/P217A/Q94H/R138Q/T323A/T345S/T97I/V358M)
- test.details: Competitive peptide-binding assay, purified HLA-A*3101
pIC50: −log10 of the molar value. Peptide text beside a SMILES is read from it.
pIC50 for assorted compounds

[
  {
    "compound": "CC(C)C[C@H](NC(=O)[C@H](C)NC(=O)[C@H](CC(C)C)NC(=O)[C@@H](N)[C@@H](C)O)C(=O)N[C@@H](CCC(=O)O)C(=O)N[C@H](C(=O)N[C@@H](C)C(=O)N[C@@H](CCC(N)=O)C(=O)N[C@@H](CCC(N)=O)C(=O)N[C@@H](CCCCN)C(=O)O)C(C)C [Mouse Ins2 C23-32] (H-TLALEVAQQK-OH)",
    "qual": "<",
    "pIC50": 4.30
  },
  {
    "compound": "CC(C)C[C@H](NC(=O)[C@H](C)NC(=O)[C@@H](N)CC(C)C)C(=O)N[C@@H](CCC(=O)O)C(=O)N[C@H](C(=O)N[C@@H](C)C(=O)N[C@@H](CCCNC(=N)N)C(=O)N[C@@H](CCC(N)=O)C(=O)N[C@@H](CCCCN)C(=O)N[C@@H](CCCNC(=N)N)C(=O)O)C(C)C [Mouse Ins1 C22-31] (H-LALEVARQKR-OH)",
    "qual": "=",
    "pIC50": 4.97
  },
  {
    "compound": "CC[C@H](C)[C@H](NC(=O)[C@H](C)N)C(=O)N[C@@H](CC(N)=O)C(=O)N[C@@H](CO)C(=O)N[C@@H](CCC(=O)O)C(=O)N[C@@H](CCSC)C(=O)N[C@@H](Cc1ccccc1)C(=O)N[C@@H](CC(C)C)C(=O)N[C@@H](CCCNC(=N)N)C(=O)O [Mouse IGRP 272–280] (H-AINSEMFLR-OH)",
    "qual": "=",
    "pIC50": 7.17
  },
  {
    "compound": "CC[C@H](C)[C@H](NC(=O)[C@H](C)N)C(=O)N[C@@H](CC(N)=O)C(=O)N[C@@H](CO)C(=O)N[C@@H](CCC(=O)O)C(=O)N[C@@H](CCSC)C(=O)N[C@@H](Cc1ccccc1)C(=O)N[C@@H](CC(C)C)C(=O)N[C@@H](CC(C)C)C(=O)O [Human IGRP 272–280] (H-AINSEMFLL-OH)",
    "qual": "=",
    "pIC50": 5.97
  },
  {
    "compound": "CC(C)C[C@H](NC(=O)[C@H](C)NC(=O)[C@@H](N)CC(C)C)C(=O)N[C@@H](CCC(=O)O)C(=O)NCC(=O)N[C@@H](CO)C(=O)N[C@@H](CC(C)C)C(=O)N[C@@H](CCC(N)=O)C(=O)N[C@@H](CCCCN)C(=O)N[C@@H](CCCNC(=N)N)C(=O)O [Human Ins C24-33] (H-LALEGSLQKR-OH)",
    "qual": "=",
    "pIC50": 4.42
  },
  {
    "compound": "CC(C)C[C@H](NC(=O)[C@H](C)NC(=O)[C@H](CC(C)C)NC(=O)[C@@H]1CCCN1)C(=O)N[C@@H](CCC(=O)O)C(=O)NCC(=O)N[C@@H](CO)C(=O)N[C@@H](CC(C)C)C(=O)N[C@@H](CCC(N)=O)C(=O)N[C@@H](CCCCN)C(=O)O [Human Ins C23-32] (H-PLALEGSLQK-OH)",
    "qual": "=",
    "pIC50": 4.40
  },
  {
    "compound": "CC(C)C[C@H](NC(=O)[C@H](C)NC(=O)[C@H](CC(C)C)NC(=O)[C@@H](N)[C@@H](C)O)C(=O)N[C@@H](CCC(=O)O)C(=O)N[C@H](C(=O)N[C@@H](C)C(=O)N[C@@H](CCCNC(=N)N)C(=O)N[C@@H](CCC(N)=O)C(=O)N[C@@H](CCCCN)C(=O)O)C(C)C [Mouse Ins1 C21-30] (H-TLALEVARQK-OH)",
    "qual": "=",
    "pIC50": 4.89
  }
]
